Test system: Recombinant human ASK1 kinase (Homo sapiens)
Experiment description: ASK1 kinase HTRF assay (KinEASE-STK)
Condition summary: HTRF detection; 3 nM ASK1 kinase, 1 uM STK-substrate-biotin
Listed here are compounds together with their documented EC50.
Quantity: EC50

INSERT INTO results (compound, result_value) VALUES
  ('CC(C)n1cnnc1-c1cccc(-c2ncc(-c3cccc(O)c3)o2)n1', '≤ 50 nM'),
  ('CC(C)n1cnnc1-c1cccc(-c2ncc(-c3cccc(C(=O)Nc4ccccc4)c3)o2)n1', '50 to 500 nM'),
  ('CC(C)n1cnnc1-c1cccc(-c2ncc(-c3cccc(N4CCCC4)c3)o2)n1', '≤ 50 nM'),
  ('CC(C)n1cnnc1-c1cccc(-c2ncc(-c3c(F)cccc3F)o2)n1', '≤ 50 nM'),
  ('CC(CO)n1cnnc1-c1cccc(-c2ncc(-c3ccccc3)o2)n1 (stereo not drawn)', '≤ 50 nM'),
  ('CC(C)n1cnnc1-c1cccc(-c2ncc(-c3cccc(C4CCCC4)c3)o2)n1', '50 to 500 nM'),
  ('CC(C)n1cnnc1-c1cccc(-c2ncc(-c3ccc(C(=O)O)cc3)o2)n1', '≤ 50 nM'),
  ('CNc1cccc(-c2cnc(-c3cccc(-c4nncn4C(C)C)n3)o2)c1', '≤ 50 nM'),
  ('CCc1ccc(-c2cnc(-c3cccc(-c4nncn4C(C)C)n3)o2)cc1', '50 to 500 nM'),
  ('CC(C)n1cnnc1-c1cccc(-c2ncc(-c3ccc4c(c3)OCCO4)o2)n1', '≤ 50 nM'),
  ('CC(C)n1cnnc1-c1cccc(-c2ncc(-c3ccc(C4CC4)cc3)o2)n1', '50 to 500 nM'),
  ('CC(C)n1cnnc1-c1cccc(-c2ncc(-c3cccc(C(=O)O)c3)o2)n1', '50 to 500 nM'),
  ('COCCOc1cccc(-c2cnc(-c3cccc(-c4nncn4C(C)C)n3)o2)c1', '≤ 50 nM'),
  ('CCc1ccccc1-c1cnc(-c2cccc(-c3nncn3C(C)C)n2)o1', '≤ 50 nM'),
  ('C[C@H](CO)n1cnnc1-c1cccc(-c2ncc(-c3c(F)cccc3F)o2)n1', '≤ 50 nM'),
  ('CC(C)Oc1cccc(-c2cnc(-c3cccc(-c4nncn4C(C)C)n3)o2)c1', '≤ 50 nM'),
  ('CC(C)n1cnnc1-c1cccc(-c2ncc(-c3ccc(C(C)(C)C)cc3F)o2)n1', '50 to 500 nM'),
  ('CC(C)c1ccc(-c2cnc(-c3cccc(-c4nncn4C(C)C)n3)o2)cc1', '50 to 500 nM'),
  ('C[C@H](CO)n1cnnc1-c1cccc(-c2ncc(-c3cccc(C4CCCCC4)c3)o2)n1', '≤ 50 nM'),
  ('C[C@H](CO)n1cnnc1-c1cccc(-c2ncc(-c3cccc(S(C)(=O)=O)c3)o2)n1', '≤ 50 nM'),
  ('Cc1ccc(-c2cnc(-c3cccc(-c4nncn4C(C)C)n3)o2)c(C)c1', '≤ 50 nM'),
  ('CC(C)n1cnnc1-c1cccc(-c2ncc(-c3nc4ccccc4o3)o2)n1', '50 to 500 nM'),
  ('C[C@H](CO)n1cnnc1-c1cccc(-c2ncc(-c3ccccc3)o2)n1', '≤ 50 nM'),
  ('CCC(C)n1cnnc1-c1cccc(-c2ncc(-c3ccccc3C)o2)n1 (stereo not drawn)', '50 to 500 nM'),
  ('CC(C)n1cnnc1-c1cccc(-c2ncc(-c3cccc(-c4ccccc4)c3)o2)n1', '50 to 500 nM'),
  ('CC(C)n1cnnc1-c1cccc(-c2ncc(-c3cccc(N4CCC(NC(=O)OC(C)(C)C)C4)c3)o2)n1 (stereo not drawn)', '≤ 50 nM'),
  ('CC(C)n1cnnc1-c1cccc(-c2ncc(-c3cccc(-c4ccccn4)c3)o2)n1', '50 to 500 nM'),
  ('CC(C)n1cnnc1-c1cccc(-c2ncc(-c3ccc4c(c3)CCCC4)o2)n1', '50 to 500 nM'),
  ('CC(C)n1cnnc1-c1cccc(-c2ncc(-c3cccc(C(F)(F)F)c3)o2)n1', '50 to 500 nM'),
  ('C[C@H](CO)n1cnnc1-c1cccc(-c2ncc(-c3cccc(C4=CCCC4)c3)o2)n1', '≤ 50 nM'),
  ('CC(C)n1cnnc1-c1cccc(-c2ncc(-c3ccc(N(C)C)cc3)o2)n1', '≤ 50 nM'),
  ('CC(C)n1cnnc1-c1cccc(-c2ncc(-c3cccc(N)c3)o2)n1', '≤ 50 nM'),
  ('COc1ccc(-c2cnc(-c3cccc(-c4nncn4C(C)C)n3)o2)cc1', '50 to 500 nM');

====

We begin with a simple list: items and their reported EC50.
Test system: Recombinant human ASK1 kinase (Homo sapiens, UniProt Q99683)
Sequence (Q99683 whole entry): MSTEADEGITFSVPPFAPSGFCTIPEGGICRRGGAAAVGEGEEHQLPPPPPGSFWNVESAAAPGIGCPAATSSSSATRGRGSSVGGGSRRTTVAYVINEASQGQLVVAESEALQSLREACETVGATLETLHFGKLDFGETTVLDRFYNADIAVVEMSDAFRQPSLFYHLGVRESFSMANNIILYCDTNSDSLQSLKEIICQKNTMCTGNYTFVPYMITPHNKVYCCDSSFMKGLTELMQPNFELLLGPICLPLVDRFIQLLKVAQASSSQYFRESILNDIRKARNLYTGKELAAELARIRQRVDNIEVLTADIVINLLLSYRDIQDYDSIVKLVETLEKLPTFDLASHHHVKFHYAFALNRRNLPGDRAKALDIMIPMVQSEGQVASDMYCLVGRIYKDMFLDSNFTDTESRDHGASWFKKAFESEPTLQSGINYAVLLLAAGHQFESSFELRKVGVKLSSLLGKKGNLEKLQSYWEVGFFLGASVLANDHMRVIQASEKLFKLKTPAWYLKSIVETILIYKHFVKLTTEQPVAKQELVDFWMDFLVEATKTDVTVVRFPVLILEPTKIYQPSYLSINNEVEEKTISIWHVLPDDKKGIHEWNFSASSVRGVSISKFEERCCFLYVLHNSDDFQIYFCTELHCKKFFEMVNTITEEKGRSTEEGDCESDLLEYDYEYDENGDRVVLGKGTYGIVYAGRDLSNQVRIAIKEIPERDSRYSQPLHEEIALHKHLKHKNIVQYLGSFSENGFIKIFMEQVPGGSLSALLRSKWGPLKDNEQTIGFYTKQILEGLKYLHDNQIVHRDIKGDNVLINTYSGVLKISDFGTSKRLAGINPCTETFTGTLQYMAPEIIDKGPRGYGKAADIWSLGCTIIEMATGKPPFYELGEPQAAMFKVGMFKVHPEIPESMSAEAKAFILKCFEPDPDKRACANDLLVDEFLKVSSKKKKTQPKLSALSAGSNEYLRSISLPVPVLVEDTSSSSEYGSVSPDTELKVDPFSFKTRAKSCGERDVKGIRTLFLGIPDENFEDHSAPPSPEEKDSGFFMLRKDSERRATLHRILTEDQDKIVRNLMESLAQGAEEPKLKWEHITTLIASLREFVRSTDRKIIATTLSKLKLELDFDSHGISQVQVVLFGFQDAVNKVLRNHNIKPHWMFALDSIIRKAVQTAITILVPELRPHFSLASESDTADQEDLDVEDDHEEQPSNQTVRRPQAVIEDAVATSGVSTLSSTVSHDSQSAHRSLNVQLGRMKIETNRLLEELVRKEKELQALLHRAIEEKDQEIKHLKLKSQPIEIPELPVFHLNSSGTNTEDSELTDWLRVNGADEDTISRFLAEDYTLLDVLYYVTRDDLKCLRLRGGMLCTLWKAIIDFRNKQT
Experiment description: ASK1 kinase HTRF assay (KinEASE-STK)
Condition summary: HTRF detection; 3 nM ASK1 kinase, 1 uM STK-substrate-biotin
Quantity: EC50

INSERT INTO assay_data (molecule, result_value) VALUES
  ('CC(C)n1cnnc1-c1cccc(-c2ncc(-c3ccc(C#N)cc3)o2)n1 [Compound I-091]', '0.05 to 0.5 µM'),
  ('Cc1ccccc1-c1cnc(-c2cccc(-c3nncn3[C@H](C)CO)n2)o1 [Compound I-025]', '≤ 0.05 µM'),
  ('CC(C)n1cnnc1-c1cccc(-c2ncc(-c3cccc(N4C5CCCC4CC5)c3)o2)n1 [Compound I-121]', '0.05 to 0.5 µM'),
  ('C[C@@H](CO)n1cnnc1-c1cccc(-c2ncc(-c3ccccc3)o2)n1 [Compound I-019]', '0.05 to 0.5 µM'),
  ('C[C@H](CO)n1cnnc1-c1cccc(-c2ncc(-c3cccc(O)c3)o2)n1 [Compound I-074]', '≤ 0.05 µM'),
  ('COc1cccc(-c2cnc(-c3cccc(-c4nncn4C(C)C)n3)o2)c1 [Compound I-070]', '0.05 to 0.5 µM'),
  ('Cc1ccc(-c2cnc(-c3cccc(-c4nncn4[C@@H](C)CO)n3)o2)c(F)c1 [Compound I-043]', '0.05 to 0.5 µM'),
  ('CC(C)n1cnnc1-c1cccc(-c2ncc(-c3cccc(-c4ccncc4)c3)o2)n1 [Compound I-108]', '≤ 0.05 µM'),
  ('CNc1cccc(-c2cnc(-c3cccc(-c4nncn4[C@H](C)CO)n3)o2)c1 [Compound I-062]', '≤ 0.05 µM'),
  ('CC(C)n1cnnc1-c1cccc(-c2ncc(-c3cccc(C(N)=O)c3)o2)n1 [Compound I-009]', '0.05 to 0.5 µM'),
  ('CC(C)n1cnnc1-c1cccc(-c2ncc(-c3cccc(N4CCC(O)C4)c3)o2)n1 (centres unmarked) [Compound I-005]', '≤ 0.05 µM'),
  ('CC(C)n1cnnc1-c1cccc(-c2ncc(-c3cccc(C4=CCCCCC4)c3)o2)n1 [Compound I-138]', '0.05 to 0.5 µM'),
  ('CC(=O)N1CCN(c2cccc(-c3cnc(-c4cccc(-c5nncn5C(C)C)n4)o3)c2)CC1 [Compound I-011]', '≤ 0.05 µM'),
  ('CC(C)n1cnnc1-c1cccc(-c2ncc(-c3ccncc3)o2)n1 [Compound I-021]', '0.05 to 0.5 µM'),
  ('CC(C)n1cnnc1-c1cccc(-c2ncc(-c3cccc(N4CCN(CCO)CC4)c3)o2)n1 [Compound I-012]', '≤ 0.05 µM'),
  ('Cc1ccccc1-c1cnc(-c2cccc(-c3nncn3C(C)C(F)(F)F)n2)o1 (centres unmarked) [Compound I-027]', '≤ 0.05 µM'),
  ('C[C@H](CO)n1cnnc1-c1cccc(-c2ncc(-c3cccc(N4CCCC4)c3)o2)n1 [Compound I-126]', '≤ 0.05 µM');

====

Test system: Recombinant human ASK1 kinase (Homo sapiens, UniProt Q99683)
Experiment description: ASK1 kinase HTRF assay (KinEASE-STK)
Condition summary: HTRF detection; 3 nM ASK1 kinase, 1 uM STK-substrate-biotin
pEC50: −log10 of the molar value.
pEC50 values by entry
Quantity: pEC50

INSERT INTO measurements (smiles_str, result_value) VALUES
  ('CCN1CCN(c2cccc(-c3cnc(-c4cccc(-c5nncn5C(C)C)n4)o3)c2)CC1', '≥ 7.30'),
  ('CC(C)n1cnnc1-c1cccc(-c2ncc(-c3cccc(N4CCN(S(C)(=O)=O)CC4)c3)o2)n1', '≥ 7.30'),
  ('CC(C)n1cnnc1-c1cccc(-c2ncc(-c3ccc(F)cc3F)o2)n1', '6.30 to 7.30'),
  ('CC(C)n1cnnc1-c1cccc(-c2ncc(-c3ccc4ccccc4c3)o2)n1', '6.30 to 7.30');

====

Each item that follows carries a reported pEC50.
Test system: Recombinant human ASK1 kinase (Homo sapiens)
Experiment description: ASK1 kinase HTRF assay (KinEASE-STK)
Condition summary: HTRF detection; 3 nM ASK1 kinase, 1 uM STK-substrate-biotin
pEC50: −log10 of the molar value.
Quantity: pEC50

INSERT INTO measurements (smiles_str, result_value) VALUES
  ('CC(C)n1cnnc1-c1cccc(-c2ncc(-c3cccc(C4CCOCC4)c3)o2)n1', '≥ 7.30'),
  ('C[C@H](CO)n1cnnc1-c1cccc(-c2ncc(-c3cccc(N)c3)o2)n1', '≥ 7.30'),
  ('Cc1ccc(-c2cnc(-c3cccc(-c4nncn4C(C)C)n3)o2)cc1', '≥ 7.30'),
  ('C[C@H](CO)n1cnnc1-c1cccc(-c2ncc(-c3cccc(S(N)(=O)=O)c3)o2)n1', '≥ 7.30'),
  ('Cc1ccc(-c2cnc(-c3cccc(-c4nncn4[C@H](C)CO)n3)o2)c(C)c1', '≥ 7.30'),
  ('CCCCCCOc1cccc(-c2cnc(-c3cccc(-c4nncn4[C@H](C)CO)n3)o2)c1', '≥ 7.30'),
  ('Cc1ccccc1-c1cnc(-c2cccc(-c3nncn3[C@H](C)CN)n2)o1', '5.30 to 6.30'),
  ('CSc1ccc(-c2cnc(-c3cccc(-c4nncn4C(C)C)n3)o2)cc1', '≥ 7.30'),
  ('CCc1cccc(-c2cnc(-c3cccc(-c4nncn4C(C)C)n3)o2)c1', '6.30 to 7.30'),
  ('CC(C)n1cnnc1-c1cccc(-c2ncc(-c3ccc(N4CCOCC4)cc3F)o2)n1', '5.30 to 6.30'),
  ('CC(C)n1cnnc1-c1cccc(-c2ncc(-c3cccc(C4CCCCC4)c3)o2)n1', '5.30 to 6.30');
